# Tested on: MDA-N
# Assay method text: NCI tumour cell line growth inhibition, 48 h
Active and inactive are the calls of the source. Rule as the data show it: active = GI50 up to about 1.1 µM and inactive = higher.
Exercise: for every item that follows, state its recorded GI50.

Consider the worked cases shown below.
- O=C(Nc1ccccn1)/C(=C\C(=O)c1ccc(Cl)cc1)Nc1ccccc1: > 10 µM (inactive)
- O=C(/C=C/c1ccccc1)N1CCCCC1: > 100 µM (inactive)
- COC(=O)C1=CC(=O)OC1(OO)c1ccc(Br)cc1 (stereo not drawn): > 100 µM (inactive)
- C=CC[C@]1(/C=N/O)CN(S(=O)(=O)CC[Si](C)(C)C)C[C@H]2CC=CC[C@H]21: 20.3 µM (inactive)
- CC1OC(OC2C(O)COC(OC3C(C)OC(OC4C(OC(=O)[C@]56CCC(C)(C)C[C@@H]5C5=CCC7[C@@]8(C)C[C@H](O)[C@H](OC9OC(CO)C(O)C(O)C9O)[C@@](C)(CO)[C@@H]8CC[C@@]7(C)[C@]5(C)CC6)OCC(O)C4O)C(O)C3OC3OCC(O)C(O)C3O)C2O)C(O)C(O)C1O (stereo partly drawn): 18.8 µM (inactive)
- COC(=S)OC1CC(n2cnc3c(N)ncnc32)OC1CO[Si](C)(C)C(C)(C)C (stereo not drawn): 18.5 µM (inactive)
- NC(CC1=CCC=CC1)C(=O)O (stereo not drawn): 59.2 µM (inactive)

Proceed to the following item.
Query: Any idea what its GI50 is? The molecule is `CCOC(=O)/C(C#N)=C/c1ccc(SCc2ccco2)c([N+](=O)[O-])c1`
Reply: > 100 µM (inactive)

---

# Test system: SR
# Assay method text: NCI tumour cell line growth inhibition, 48 h
Calls of active or inactive are those of the source. No stated cut-off is given here; in the data, active = GI50 up to about 1.1 µM and inactive = higher.
Observable: GI50

• COC(=O)c1ccccc1/N=C(/NC1CCCCCC1)NS(=O)(=O)c1ccc(C)cc1 = > 100 µM (inactive)
• CN1CC[C@@]2(c3cccc(O)c3)CC(=O)/C(=C/c3ccc(Cl)c(Cl)c3)[C@H]1C2 = 1.14 µM (inactive)
• COC(=O)C1=CC(=O)OC1(OO)c1ccc(Br)cc1 (centres undefined) = 55.8 µM (inactive)
• COc1ccc(N2C(=O)[C@H]3[C@H]4CC(C(C)(C)C)CC[C@H]4c4c(n(C)c5ccccc45)[C@H]3C2=O)cc1 (some centres undefined) = > 100 µM (inactive)
• CCCCn1c2c(n(CCCC)c1=S)-c1c(n(CCCC)c(=S)n1CCCC)S[Se][Se]S2 = 5.19 µM (inactive)
• O=C1CC(c2cccc(Cl)c2)n2cccc21 (centres undefined) = 90.2 µM (inactive)

Give GI50 for each of the items listed below.
1. CC(C)(C)OC(=O)N(CCCCN(CCCNC(=O)C(F)(F)F)C(=O)OC(C)(C)C)CCCNC(=O)C(F)(F)F
2. COC1(OC)CCCc2c1no[n+]2[O-]
3. COc1cc(C2SCC(=O)N2c2ccc(-c3ccc(-n4c(-c5ccccc5)nc5ccccc5c4=O)cc3)cc2)cc(OC)c1OC (centres undefined)

Reply:
["> 100 µM (inactive)", "> 100 µM (inactive)", "23.1 µM (inactive)"]

---

# System: SK-MEL-28
# Assay method text: NCI tumour cell line growth inhibition, 48 h
The source made the active and inactive calls. No stated cut-off is given here; in the data, active = GI50 up to about 1.1 µM and inactive = higher.
Outcome field: choose from active, inactive

Query: What is the recorded call for this compound in the test? O=C1OC(C2(O)OC(=O)c3ccccc32)c2ccccc21 (stereo unspecified)
Reply: inactive

Query: Fill in: this test's call for `Cc1ccc2c(c1)-c1c(C#N)c(N)nc(-c3ccccc3)c1CCS2(=O)=O` is ___
Reply: inactive

Query: Recorded test call requested for `Cc1cc(C)nc(NS(=O)(=O)c2ccc(Nc3c4ccccc4nc4c(C(=O)N5CCN(CCOS(C)(=O)=O)CC5)cccc34)cc2)n1`
Reply: inactive

Query: How did this test come out for `COc1cccc(/C=C2\N=C(Cl)OC2=O)c1O` ?
Reply: inactive

Query: Each compound tested received a call. Report the one for O=[N+]([O-])c1ccccc1C1SCc2nc3ccccc3n21 (stereo unspecified) .
Reply: inactive

Query: Assay result, entry O=C1N/C(=N/N=C/C(O)C(O)C(O)CO)N/C1=C\c1c[nH]c2ccccc12 (stereo unspecified) — outcome?
Reply: inactive

Query: Hey, what did the test say about CCCCC1Cc2cc(O)ccc2-c2n1c1cc(O)ccc1[n+]2C.CCCCC1Cc2cc(O)ccc2-c2n1c1ccc(O)cc1[n+]2C (stereo unspecified) ?
Reply: inactive

Query: Hey, what did the test say about CC(C)(CN1CCCCC1)C(=O)CC(SCCS(=O)(=O)O)c1ccc(Br)cc1 (stereo unspecified) ?
Reply: inactive

Query: Record lookup: outcome of this test for `FC(F)(F)c1cccc(/C=N/C23CC4CC(CC(C4)C2)C3)c1` ?
Reply: inactive

Query: What did the test return for `O=C1OC(c2ccccc2)=N/C1=C\c1ccc(Oc2ccc(Cl)c(Cl)c2)cc1` ?
Reply: inactive

Query: Identify the outcome logged in this assay for the compound shown: N#Cc1c(N)nc2c3c1NC(=O)C(C(N)=O)C3c1ccccc1O2 (stereo unspecified)
Reply: inactive
